- Tested on: HEK293
- experiment: Cytotoxicity against HEK293 cells after 48 hrs by MTT assay
- Format: cell-based
- conditionLabel: Homo sapiens, HEK293, 48 h
outcomeMeasure: pIC50
Please note pIC50 is a logarithmic value: minus log10 of concentration in mol/L. Answer with that number alone.

Enquiry: Report the value of pIC50 obtained on HEK293 for O=C(CC[P+](c1ccccc1)(c1ccccc1)c1ccccc1)Nc1ccc([As]2SCCCS2)cc1.[Cl-] .
Return: 5.68

----------
- Test system: HeLa
- experiment: Cytotoxicity against human HeLa cells after 48 hrs by MTT assay
- Type: functional, cell-based
outcomeMeasure: IC50 (µM)
Give the value in µM but do not write µM after it.

Enquiry: Look up and report measured IC50 for this entry: O=C(CC[P+](c1ccccc1)(c1ccccc1)c1ccccc1)Nc1ccc([As]2SCCCS2)cc1.[Cl-]
Return: 3.91
